Quick reference: Ki of the listed items.
Target Or Test System: Bcl-xL (GST-Bcl-xL) (Homo sapiens)
Measurement Description: TR-FRET binding assay, competition with F-Bak for the Bcl-xL binding site
Test Settings: values listed in the order of Table 1, read-out: TR-FRET assay results (Ki), Bcl-xL
// return the numeric value with its unit appended

[Q] Fill in the blank: the reported Ki of `CN(C)CC#Cc1ccc(OCCCc2sc(N3CCc4cccc(C(=O)Nc5nc6ccccc6s5)c4C3)nc2C(=O)O)c(F)c1` is ____.
[A] 0.004 nM

[Q] // next record `CN1CCN(c2cccc(OCCCc3sc(N4CCc5cccc(C(=O)Nc6nc7ccccc7s6)c5C4)nc3C(=O)O)c2)CC1`
[A] 0.05 nM

[Q] Query `O=C(Nc1nc2ccccc2s1)c1cccc2c1CN(c1nc(C(=O)O)c(CCCOc3cccc(-n4ncc5cncnc54)c3)s1)CC2` next
[A] 0.3 nM

Kindly review the next molecule as well.
[Q] Entry `CC(C)(C)OC(=O)Nc1ccc(OCCCc2sc(N3CCc4cccc(C(=O)Nc5nc6ccccc6s5)c4C3)nc2C(=O)O)cc1` has what Ki?
[A] 0.3 nM

----------
Target Or Test System: Bcl-xL (GST-Bcl-xL) (Homo sapiens, UniProt Q07817)
Sequence (Q07817 whole entry, species assumed): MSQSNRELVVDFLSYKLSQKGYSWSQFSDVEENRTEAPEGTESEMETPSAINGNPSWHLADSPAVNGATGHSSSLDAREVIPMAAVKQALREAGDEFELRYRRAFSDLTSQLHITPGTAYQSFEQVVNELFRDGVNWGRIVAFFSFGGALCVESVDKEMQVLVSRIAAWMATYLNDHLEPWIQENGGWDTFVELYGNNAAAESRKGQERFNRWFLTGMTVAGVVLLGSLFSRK
Measurement Description: TR-FRET binding assay, competition with F-Bak for the Bcl-xL binding site
Test Settings: values listed in the order of Table 1, read-out: TR-FRET assay results (Ki), Bcl-xL
Field: label. Allowed values: Condition met (Ki < 0.6 nM) or Condition not met (Ki >= 0.6 nM).

[Q] Please check: Ki for `CC(=O)N1CCN(c2ccc(OCCCc3sc(N4CCc5cccc(C(=O)Nc6nc7ccccc7s6)c5C4)nc3C(=O)O)cc2)CC1` , strictly under 0.6 nM or not?
[A] Condition met

[Q] Similarly, `CN(C)CC#Cc1ccc(OCCCc2sc(N3CCc4cccc(C(=O)Nc5nc6ccccc6s5)c4C3)nc2C(=O)NS(=O)(=O)C(F)F)c(F)c1` ?
[A] Condition not met

[Q] Now consider `O=C(Nc1nc2ccccc2s1)c1cccc2c1CN(c1ccc(CCCO)c(C(=O)O)n1)CC2` and answer again.
[A] Condition not met

[Q] And for `NCc1ccc(OCCCc2sc(N3CCc4cccc(C(=O)Nc5nc6ccccc6s5)c4C3)nc2C(=O)O)cc1` ?
[A] Condition met

[Q] Could you do the same for `O=C(Nc1nc2ccccc2s1)c1cccc2c1CN(c1ccc(CCCOc3ccc(-c4ncccn4)cc3)c(C(=O)O)n1)CC2` , please?
[A] Condition met

[Q] // same read-out, input: `N#Cc1cscc1-c1ccc(O)c(Cc2sc(N3CCc4cccc(C(=O)Nc5nc6ccccc6s5)c4C3)nc2C(=O)O)c1`
[A] Condition not met
